Data credit: patent US5502035A

target: LHRH (Rattus norvegicus, UniProt P30969); construct: endogenous in cells; host or cells: rat pituitary cells (own knowledge of the cited Haviv 1989 method); assay: in vitro test for LHRH antagonist potency (pA2); type: cell-based; settings: negative logarithm of the antagonist concentration required to shift the response curve produced by the agonist leuprolide to two-fold higher concentration
Sequence (P30969 whole entry): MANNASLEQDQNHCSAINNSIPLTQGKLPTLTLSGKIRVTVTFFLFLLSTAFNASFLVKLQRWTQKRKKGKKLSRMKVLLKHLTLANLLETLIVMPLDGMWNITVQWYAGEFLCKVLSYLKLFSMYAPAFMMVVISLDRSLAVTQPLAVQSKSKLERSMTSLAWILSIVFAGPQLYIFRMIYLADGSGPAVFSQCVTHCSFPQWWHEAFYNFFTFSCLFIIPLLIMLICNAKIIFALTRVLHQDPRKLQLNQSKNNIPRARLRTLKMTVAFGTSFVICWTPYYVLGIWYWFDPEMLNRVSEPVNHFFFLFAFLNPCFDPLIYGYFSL
Non-standard residues stand in square brackets, D forms with d. Residues, ends and D or L forms follow the SMILES beside them. Groups on a side chain read outwards from the residue. *: point of attachment. dAla(benzothien-2-yl) = N[C@H](Cc1cc2ccccc2s1)C(=O)O; Shikimoyl = O=C(C1=C[C@@H](O)[C@@H](O)[C@H](O)C1)*; dPhe(4-Cl) = N[C@H](Cc1ccc(Cl)cc1)C(=O)O; d2Nal = N[C@H](Cc1ccc2ccccc2c1)C(=O)O; Lys(iPr) = CC(C)NCCCC[C@H](N)C(=O)O; NMeY = CN[C@@H](Cc1ccc(O)cc1)C(=O)O; dCit = NC(=O)NCCC[C@@H](N)C(=O)O; hArg = N=C(N)NCCCC[C@H](N)C(=O)O; d3Pal = N[C@H](Cc1cccnc1)C(=O)O; Isonicotinoyl = O=C(c1ccncc1)*; Nicotinoyl = O=C(c1cccnc1)*; Picolinoyl = O=C(c1ccccn1)*; 2Furoyl = O=C(c1ccco1)*; X9 = O=C(c1ccc(O)nc1)*; azaGly = NNC(=O)O
readout_name: Kb (nM)
Numbers only, in nM.

// known answers, use as guide
molecule	Kb / nM
CC(C)C[C@H](NC(=O)[C@@H](CCCCNC(=O)c1cccnc1)NC(=O)[C@H](Cc1ccc(O)cc1)N(C)C(=O)[C@H](CO)NC(=O)[C@@H](Cc1cccnc1)NC(=O)[C@@H](Cc1ccc(Cl)cc1)NC(=O)[C@@H](Cc1ccc2ccccc2c1)NC(=O)c1ccc(O)nc1)C(=O)N[C@@H](CCCCNC(C)C)C(=O)N1CCC[C@H]1C(=O)N[C@H](C)C(N)=O [Example 72f] (X9-[d2Nal][dPhe(4-Cl)][d3Pal]S[NMeY][dK](Nicotinoyl)L[Lys(iPr)]P[dA]-NH2)	0.01
CC(C)C[C@H](NC(=O)[C@@H](CCCCNC(=O)c1cccnc1)NC(=O)[C@H](Cc1ccc(O)cc1)N(C)C(=O)[C@H](CO)NC(=O)[C@@H](Cc1cccnc1)NC(=O)[C@@H](Cc1ccc(Cl)cc1)NC(=O)[C@@H](Cc1ccc2ccccc2c1)NC(=O)CNC(=O)c1ccncc1)C(=O)N[C@@H](CCCCNC(C)C)C(=O)N1CCC[C@H]1C(=O)N[C@H](C)C(N)=O [Example 2g] (Isonicotinoyl-G[d2Nal][dPhe(4-Cl)][d3Pal]S[NMeY][dK](Nicotinoyl)L[Lys(iPr)]P[dA]-NH2)	0.00708
CC(C)C[C@H](NC(=O)[C@@H](CCCCNC(=O)CNC(=O)C1=C[C@@H](O)[C@@H](O)[C@H](O)C1)NC(=O)[C@H](Cc1ccc(O)cc1)N(C)C(=O)[C@H](CO)NC(=O)[C@@H](Cc1cccnc1)NC(=O)[C@@H](Cc1ccc(Cl)cc1)NC(=O)[C@@H](Cc1ccc2ccccc2c1)NC(=O)CNC(=O)c1cccnc1)C(=O)N[C@@H](CCCNC(=N)N)C(=O)N1CCC[C@H]1C(=O)N[C@H](C)C(N)=O [Example 22] (Nicotinoyl-G[d2Nal][dPhe(4-Cl)][d3Pal]S[NMeY][dK]([Gly-Shikimoyl])LRP[dA]-NH2)	0.00339
CC(C)C[C@H](NC(=O)[C@@H](CCCCNC(=O)c1cccnc1)NC(=O)[C@H](Cc1ccc(O)cc1)N(C)C(=O)[C@H](CO)NC(=O)[C@@H](Cc1cccnc1)NC(=O)[C@@H](Cc1ccc(Cl)cc1)NC(=O)[C@@H](Cc1ccc2ccccc2c1)NC(=O)[C@@H](CO)NC(=O)C1=C[C@@H](O)[C@@H](O)[C@H](O)C1)C(=O)N[C@@H](CCCCNC(C)C)C(=O)N1CCC[C@H]1C(=O)N[C@H](C)C(N)=O [Example 7] (Shikimoyl-[dS][d2Nal][dPhe(4-Cl)][d3Pal]S[NMeY][dK](Nicotinoyl)L[Lys(iPr)]P[dA]-NH2)	0.0263

Provide reported Kb for each item, in the same order as listed.
1. CC(C)C[C@H](NC(=O)[C@@H](CCCCNC(=O)c1cccnc1)NC(=O)[C@H](Cc1ccc(O)cc1)N(C)C(=O)[C@H](CO)NC(=O)[C@@H](Cc1cc2ccccc2s1)NC(=O)[C@@H](Cc1ccc(Cl)cc1)NC(=O)NNC(=O)c1ccncc1)C(=O)N[C@@H](CCCCNC(C)C)C(=O)N1CCC[C@H]1C(=O)N[C@H](C)C(N)=O [Example 33b] (Isonicotinoyl-[azaGly][dPhe(4-Cl)][dAla(benzothien-2-yl)]S[NMeY][dK](Nicotinoyl)L[Lys(iPr)]P[dA]-NH2)
2. CC(C)C[C@H](NC(=O)[C@@H](CCCCNC(=O)C1=C[C@@H](O)[C@@H](O)[C@H](O)C1)NC(=O)[C@H](Cc1ccc(O)cc1)N(C)C(=O)[C@H](CO)NC(=O)[C@@H](Cc1cccnc1)NC(=O)[C@@H](Cc1ccc(Cl)cc1)NC(=O)[C@@H](Cc1ccc2ccccc2c1)NC(=O)[C@@H](CCCCNC(=O)c1cccnc1)NC(=O)c1cccnc1)C(=O)N[C@@H](CCCNC(=N)N)C(=O)N1CCC[C@H]1C(=O)N[C@H](C)C(N)=O [Example 14g] (Nicotinoyl-[dK](Nicotinoyl)[d2Nal][dPhe(4-Cl)][d3Pal]S[NMeY][dK](Shikimoyl)LRP[dA]-NH2)
3. CC(C)C[C@H](NC(=O)[C@@H](CCCCNC(=O)C1=C[C@@H](O)[C@@H](O)[C@H](O)C1)NC(=O)[C@H](Cc1ccc(O)cc1)N(C)C(=O)[C@H](CO)NC(=O)[C@@H](Cc1cccnc1)NC(=O)[C@@H](Cc1ccc(Cl)cc1)NC(=O)[C@@H](Cc1ccc2ccccc2c1)NC(=O)CNC(=O)c1cccnc1)C(=O)N[C@@H](CCCCNC(=N)N)C(=O)N1CCC[C@H]1C(=O)N[C@H](C)C(N)=O [Example 25a] (Nicotinoyl-G[d2Nal][dPhe(4-Cl)][d3Pal]S[NMeY][dK](Shikimoyl)L[hArg]P[dA]-NH2)
4. CC(C)C[C@H](NC(=O)[C@@H](CCCNC(N)=O)NC(=O)[C@H](Cc1ccc(O)cc1)N(C)C(=O)[C@H](CO)NC(=O)[C@@H](Cc1cccnc1)NC(=O)[C@@H](Cc1ccc(Cl)cc1)NC(=O)[C@@H](Cc1ccc2ccccc2c1)NC(=O)c1ccccn1)C(=O)N[C@@H](CCCNC(=N)N)C(=O)N1CCC[C@H]1C(=O)N[C@H](C)C(N)=O [Example 78f] (Picolinoyl-[d2Nal][dPhe(4-Cl)][d3Pal]S[NMeY][dCit]LRP[dA]-NH2)
5. CC(C)C[C@H](NC(=O)[C@@H](CCCCNC(=O)NNC(=O)c1ccco1)NC(=O)[C@H](Cc1ccc(O)cc1)N(C)C(=O)[C@H](CO)NC(=O)[C@@H](Cc1cccnc1)NC(=O)[C@@H](Cc1ccc(Cl)cc1)NC(=O)[C@@H](Cc1ccc2ccccc2c1)NC(=O)C1=C[C@@H](O)[C@@H](O)[C@H](O)C1)C(=O)N[C@@H](CCCCNC(C)C)C(=O)N1CCC[C@H]1C(=O)N[C@H](C)C(N)=O [Example 30c] (Shikimoyl-[d2Nal][dPhe(4-Cl)][d3Pal]S[NMeY][dK]([azaGly-2Furoyl])L[Lys(iPr)]P[dA]-NH2)

*A*
0.02
0.11
0.0141
0.0316
0.038
